assayed target: Albumin (Homo sapiens)
Sequence (P02768 whole entry): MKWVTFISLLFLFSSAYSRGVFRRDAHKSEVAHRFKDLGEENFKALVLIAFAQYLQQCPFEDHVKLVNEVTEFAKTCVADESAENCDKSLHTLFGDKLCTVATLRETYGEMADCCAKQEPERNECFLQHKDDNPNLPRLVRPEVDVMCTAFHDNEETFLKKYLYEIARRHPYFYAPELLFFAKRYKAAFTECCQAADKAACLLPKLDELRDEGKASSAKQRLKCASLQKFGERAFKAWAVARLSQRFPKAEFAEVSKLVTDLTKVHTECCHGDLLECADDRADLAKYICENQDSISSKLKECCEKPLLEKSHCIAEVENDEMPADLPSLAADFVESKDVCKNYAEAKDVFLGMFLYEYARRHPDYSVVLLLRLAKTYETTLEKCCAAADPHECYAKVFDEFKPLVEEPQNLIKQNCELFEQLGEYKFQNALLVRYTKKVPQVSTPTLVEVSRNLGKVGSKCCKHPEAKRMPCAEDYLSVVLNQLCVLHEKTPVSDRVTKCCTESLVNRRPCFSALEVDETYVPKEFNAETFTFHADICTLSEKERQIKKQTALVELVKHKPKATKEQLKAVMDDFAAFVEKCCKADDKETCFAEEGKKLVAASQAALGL
protocol details: Binding affinity to human serum albumin with excitation at 285 nm after 30 mins by fluorescence spectrophotometric analysis
measured parameter: Kd (µM)

C=C(C)[C@@H]1CC[C@]2(C(=O)N[C@H](C)C(=O)O)CC[C@]3(C)[C@H](CC[C@@H]4[C@@]5(C)CC[C@H](O)C(C)(C)[C@@H]5CC[C@]43C)[C@@H]12    47

1 = C=C(C)[C@@H]1CC[C@]2(C(=O)N[C@H](C)C(=O)[O-])CC[C@]3(C)[C@H](CC[C@@H]4[C@@]5(C)CC[C@H](O)C(C)(C)[C@@H]5CC[C@]43C)[C@@H]12.CCCCCCCCCCCC[N+](C)(C)Cc1ccccc1
2 = C=C(C)[C@@H]1CC[C@]2(C(=O)[O-])CC[C@]3(C)[C@H](CC[C@@H]4[C@@]5(C)CC[C@H](O)C(C)(C)[C@@H]5CC[C@]43C)[C@@H]12.CCCCCCCCCCCC[N+](C)(C)Cc1ccccc1
Returns the identifier with the smallest measured Kd among 1 and 2 . Choose, then provide that item's label.
2
